All values here come from PubChem BioAssay (NCATS).

experiment: qHTS of pediatric cancer cell lines to identify multiple opportunities for drug repurposing: Primary screen for U-2 OS cells (AID 1347096); settings: U-2 OS viability, CellTiter-Glo luminescence, 48 h; series mostly up to 46 µM; note: nearly all actives have a fitted effect of over 50% in size; note: potency is the fitted concentration of half-maximal effect
Records with an inconclusive call do not appear. Activity calls are given as the source filed them. Calls come from the whole dose curve; as a rule, active = well fitted cell-killing curve with a large enough effect; inconclusive = small, poorly fitted or top-dose-only effect; inactive = flat fitted curve, though single readings scatter. Positions of bridges follow the written chain, without caps; N, C: chain ends. Non-standard residues stand in square brackets, D forms with d. Residues, ends and D or L forms follow the SMILES beside them. ξ: configuration not given here. *: point of attachment. Octanoyl(6-Me) = CCC(C)CCCCC(=O)*; ξThr(3R) = C[C@@H](O)C(N)C(=O)O; dDab = NCC[C@@H](N)C(=O)O; Dab = NCC[C@H](N)C(=O)O
Measurement Label: Potency

Compound	Observed Measurement
CC(C)(C)c1nc2c3cc[nH]c(=O)c3c3cc(F)ccc3c2[nH]1	inactive
COc1ccc(Nc2cc(-c3cnc(N)nc3)nc(N3CCOCC3)n2)cn1	14.8 µM (active)
CN[C@@H]1C[C@H]2O[C@@](C)([C@H]1OC)n1c3ccccc3c3c4c(c5c6ccccc6n2c5c31)C(=O)N[C@H]4O	2.96 µM (active)
CCC(C)CCCCC(=O)N[C@@H](CCN)C(=O)NC(C(=O)N[C@H](CCN)C(=O)N[C@@H]1CCNC(=O)C([C@@H](C)O)NC(=O)[C@@H](CCN)NC(=O)[C@@H](CCN)NC(=O)[C@@H](CC(C)C)NC(=O)[C@H](Cc2ccccc2)NC(=O)[C@H](CCN)NC1=O)[C@@H](C)O (stereo partly drawn) ({Octanoyl(6-Me)}-[Dab][ξThr(3R)][dDab][dDab][Dab]F[dL][dDab][dDab][ξThr(3R)]; lactam 4-C)	inactive

Ask: Quick check: Potency of C#CCC(Cc1cnc2nc(N)nc(N)c2n1)c1ccc(C(=O)N[C@@H](CCC(=O)O)C(=O)O)cc1 (stereo partly specified) ?
Reply: inactive

Ask: Bench note: what Potency did O=C(C=CC#Cc1cccc(NS(=O)(=O)c2ccccc2)c1)NO show?
Reply: 2.96 µM (active)

----------
experiment: Quantitative High-Throughput drug screen in 47 multiple myeloma cell lines against the NCATS MIPE library collection: Karpas620_DSMZ cell viability assay (AID 1918959); conditions: Karpas620 myeloma viability, CellTiter-Glo ATP luminescence, 48 h; series mostly up to 45.8 µM; note: nearly all actives have a fitted effect of over 30% in size
Records with an inconclusive call do not appear. Activity calls are given as the source filed them. Calls come from the whole dose curve; as a rule, active = well fitted cell-killing curve with a large enough effect; inconclusive = small, poorly fitted or top-dose-only effect, or effect the other way; inactive = no such curve, though single readings can be large or run the other way.
Please state which outcome applies, choosing from active, inactive

Look over these answered cases.
Compound	Label
CCN(CC)Cc1ccc2cc(COC(=O)Nc3ccc(C(=O)NO)cc3)ccc2c1	active
C=CC(=O)Nc1cc(NC(=O)c2ccc(C)c(NC(=O)c3ccno3)c2)cc(C(F)(F)F)c1	active
NC[C@H]1O[C@H](O[C@H]2[C@@H](O)[C@@H](O[C@H]3O[C@H](CO)[C@@H](O)[C@H](N)[C@@H]3O)[C@H](N)C[C@@H]2N)[C@H](N)C[C@H]1O	inactive
CC(C(C)N1CC(=O)NC(=O)C1)N1CC(=O)NC(=O)C1 (centres undefined)	inactive
OCC(O)C(O)C(O)CO (centres undefined)	inactive
Cc1cc(C(=O)NOCCO)c(Nc2ccc(I)cc2F)n(C)c1=O	active

Ask: What call does the record list for CC(=O)N[C@H]1[C@@H]([C@H](O)[C@H](O)CO)OC(C(=O)O)=C[C@@H]1N=C(N)N ?
Reply: inactive

Ask: Which outcome was assigned to CCOC(=O)[C@@H](N)Cc1ccc(-c2cc(O[C@H](c3ccc(Cl)cc3-n3ccc(C)n3)C(F)(F)F)nc(N)n2)cc1 in this test?
Reply: active

Ask: How did this test come out for CN(C)CC(=O)N1CCC(c2ccc(NC(=O)c3ncc(C#N)[nH]3)c(C3=CCCCC3)c2)CC1 ?
Reply: inactive
